Tested on: 945468-187-T-J2-PDC spheroids viability
Experiment: Anticancer human tumor 945468-187-T-J2-PDC patient-derived rectal carcinoma cell line growth inhibition [PI3K]
Details: second compound 0.1 µM; first compound 0.1 µM; stronger effect = lower value; spheroids with HUVEC and MSC
observation type: viability, T/C (%)
// units = %; emit number, no label

Use these answered entries as a reference point.
Could you please provide reported viability, T/C for C#Cc1c(F)ccc2cc(O)cc(-c3ncc4c(N5CC6CCC(C5)N6)nc(OCC56CCCN5CC(F)C6)nc4c3F)c12 (stereo not given) + COc1c(OCCCN2CCOCC2)ccc2c3n(c(=NC(=O)c4cnc(N)nc4)nc12)CCN3 ? Thanks!
95

Please indicate viability, T/C recorded for CC(C)n1nc(-c2ccc3oc(N)nc3c2)c2c(N)ncnc21 + CC(Nc1ccc2c(c1)OCCn1cc(N3C(=O)OCC3C(F)F)nc1-2)C(N)=O
61.4

Check the records and state viability, T/C for C[C@@H](NC(=O)c1ncnc(N)c1Cl)c1ncc(C(=O)Nc2cc(C(F)(F)F)c(Cl)cn2)s1 + CC(Nc1ncnc2nc[nH]c12)c1cc2cccc(Cl)c2c(=O)n1-c1ccccc1
108

Continuing:
Check the records and state viability, T/C for C[C@@H](NC(=O)c1ncnc(N)c1Cl)c1ncc(C(=O)Nc2cc(C(F)(F)F)c(Cl)cn2)s1 + CC(Nc1ccc2c(c1)OCCn1cc(N3C(=O)OCC3C(F)F)nc1-2)C(N)=O
112

Fill in reported viability, T/C for this entry: CC(=O)c1c(C)c2cnc(Nc3ccc(N4CCNCC4)cn3)nc2n(C2CCCC2)c1=O + CC(Nc1ccc2c(c1)OCCn1cc(N3C(=O)OCC3C(F)F)nc1-2)C(N)=O
100

###

Test system: 945468-187-T-J2-PDC spheroids viability
Assay: Anticancer human tumor 945468-187-T-J2-PDC cell line growth inhibition [PI3K];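 also: spheroids exposed to compounds for seven days before reading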
Details: curve of first compound; second compound 0.316 µM; spheroids with HUVEC and MSC
pIC50: −log10 of the molar value.
observation type: pIC50

Example cases with answers are listed next.
# return recorded pIC50 for input Cn1ncnc1[C@H]1c2n[nH]c(=O)c3cc(F)cc(c23)N[C@@H]1c1ccc(F)cc1 + CC(Nc1ncnc2nc[nH]c12)c1cc2cccc(Cl)c2c(=O)n1-c1ccccc1
< 7.00

Answer with reported pIC50 of C#Cc1c(F)ccc2cc(O)cc(-c3ncc4c(N5CC6CCC(C5)N6)nc(OCC56CCCN5CC(F)C6)nc4c3F)c12 (stereo not given) + Cc1nc(NC(=O)N2CCCC2C(N)=O)sc1-c1ccnc(C(C)(C)C(F)(F)F)c1
< 5.00

Give me measured pIC50, please, for this compound: CC(=O)c1c(C)c2cnc(Nc3ccc(N4CCNCC4)cn3)nc2n(C2CCCC2)c1=O + COc1c(OCCCN2CCOCC2)ccc2c3n(c(=NC(=O)c4cnc(N)nc4)nc12)CCN3
> 9.50

Continuing:
Input CC(Cn1ccc(-c2ccc(C#N)c(Cl)c2)n1)NC(=O)c1cc(C(C)O)[nH]n1 (stereo not given) + CC(Nc1ncnc2nc[nH]c12)c1cc2cccc(Cl)c2c(=O)n1-c1ccccc1 , output reported pIC50.
< 5.00

Please give measured pIC50 of the following entry: C=CC(=O)N1CCN(c2nc(=O)n(-c3c(C)ccnc3C(C)C)c3nc(-c4c(O)cccc4F)c(F)cc23)C(C)C1 (stereo not given) + CC(Nc1ncnc2nc[nH]c12)c1cc2cccc(Cl)c2c(=O)n1-c1ccccc1
< 5.00

###

Test system: 945468-187-T-J2-PDC spheroids viability
Experiment: Anticancer human tumor 945468-187-T-J2-PDC cell line growth inhibition [PI3K];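 also: spheroids exposed to compounds for seven days before reading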
Settings: second compound 0.0316 µM; first compound 0.316 µM; stronger effect = lower value; spheroids with HUVEC and MSC
Text: Combinatorial screen of targeted agents with the PI3K inhibitors inavolisib, alpelisib, duvelisib, and copanlisib in multi-cell type tumor spheroids A high-throughput screen of multi-cell type tumor spheroids was designed to identify active combinations of targeted small molecules and PI3K pathway inhibitors. […] Compounds. […] If the clinical Cmax for an agent had not been determined, the highest concentration tested was 10 microM. […]
observation type: viability, T/C (%)
Just the number please, in %, no unit attached.

Worked examples, 4 compounds total:
Consider the compound CNC(=O)c1ccc(N2C(=S)N(c3ccc(C#N)c(C(F)(F)F)c3)C(=O)C2(C)C)cc1F + CC(Nc1ncnc2nc[nH]c12)c1cc2cccc(Cl)c2c(=O)n1-c1ccccc1 and give its recorded viability, T/C.
96.3

Output viability, T/C of C[C@@H](NC(=O)c1ncnc(N)c1Cl)c1ncc(C(=O)Nc2cc(C(F)(F)F)c(Cl)cn2)s1 + CC(Nc1ccc2c(c1)OCCn1cc(N3C(=O)OCC3C(F)F)nc1-2)C(N)=O
115

Answer with the recorded viability, T/C for the compound listed here: CNC(=O)c1ccc(N2C(=S)N(c3ccc(C#N)c(C(F)(F)F)c3)C(=O)C2(C)C)cc1F + CC(Nc1ccc2c(c1)OCCn1cc(N3C(=O)OCC3C(F)F)nc1-2)C(N)=O
102

Return value of viability, T/C for input Cn1ncc(Cl)c1-c1cc(C(=O)NC(CN)Cc2cccc(F)c2)sc1Cl (stereo not given) + CC(Nc1ncnc2nc[nH]c12)c1cc2cccc(Cl)c2c(=O)n1-c1ccccc1 , no commentary.
96.3

# next compound below
Please report the measured viability, T/C for C=CC(=O)N1CCN(c2nc(=O)n(-c3c(C)ccnc3C(C)C)c3nc(-c4c(O)cccc4F)c(F)cc23)C(C)C1 (stereo not given) + Cc1nc(NC(=O)N2CCCC2C(N)=O)sc1-c1ccnc(C(C)(C)C(F)(F)F)c1
96.2

###

System: 945468-187-T-J2-PDC spheroids viability
Test: Anticancer human tumor 945468-187-T-J2-PDC cell line growth inhibition [PI3K];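 also: spheroids exposed to compounds for seven days before reading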
Conditions: second compound 10 µM; first compound 3.16 µM; stronger effect = lower value; spheroids with HUVEC and MSC
One threshold, 90%, splits the recorded viability, T/C values: lower ones are 1, equal or higher ones are 0.

Sample answers from the record:
Strictly below 90%: is that where viability, T/C of CC1(C)CCC(CN2CCN(c3ccc(C(=O)NS(=O)(=O)c4ccc(NCC5CCOCC5)c([N+](=O)[O-])c4)c(Oc4cnc5[nH]ccc5c4)c3)CC2)=C(c2ccc(Cl)cc2)C1 + CC(Nc1ncnc2nc[nH]c12)c1cc2cccc(Cl)c2c(=O)n1-c1ccccc1 sits?
0

viability, T/C under 90%? Item: CCCS(=O)(=O)Nc1ccc(F)c(C(=O)c2c[nH]c3ncc(-c4ccc(Cl)cc4)cc23)c1F + Cc1nc(NC(=O)N2CCCC2C(N)=O)sc1-c1ccnc(C(C)(C)C(F)(F)F)c1
1

Field: below-cutoff. Rule: recorded viability, T/C strictly less than 90%. Subject: Cn1ncc(Cl)c1-c1cc(C(=O)NC(CN)Cc2cccc(F)c2)sc1Cl (stereo unspecified) + CC(Nc1ncnc2nc[nH]c12)c1cc2cccc(Cl)c2c(=O)n1-c1ccccc1
1

Say whether its viability, T/C is strictly beneath 90%. Entry: CNC(=O)c1ccc(N2C(=S)N(c3ccc(C#N)c(C(F)(F)F)c3)C(=O)C2(C)C)cc1F + Cc1nc(NC(=O)N2CCCC2C(N)=O)sc1-c1ccnc(C(C)(C)C(F)(F)F)c1
1

Just wondering, is viability, T/C of Cn1ncc(Cl)c1-c1cc(C(=O)NC(CN)Cc2cccc(F)c2)sc1Cl (stereo unspecified) + Cc1nc(NC(=O)N2CCCC2C(N)=O)sc1-c1ccnc(C(C)(C)C(F)(F)F)c1 below 90%?
1

---
Lab log: compare recorded viability, T/C with 90%; is it strictly lower for C=CC(=O)N1CCN(c2nc(=O)n(-c3c(C)ccnc3C(C)C)c3nc(-c4c(O)cccc4F)c(F)cc23)C(C)C1 (stereo unspecified) + Cc1nc(NC(=O)N2CCCC2C(N)=O)sc1-c1ccnc(C(C)(C)C(F)(F)F)c1 ?
1

Strictly below 90%: is that where viability, T/C of C#Cc1c(F)ccc2cc(O)cc(-c3ncc4c(N5CC6CCC(C5)N6)nc(OCC56CCCN5CC(F)C6)nc4c3F)c12 (stereo unspecified) + CC(Nc1ncnc2nc[nH]c12)c1cc2cccc(Cl)c2c(=O)n1-c1ccccc1 sits?
0

Consider the compound CC(Cn1ccc(-c2ccc(C#N)c(Cl)c2)n1)NC(=O)c1cc(C(C)O)[nH]n1 (stereo unspecified) + CC(Nc1ncnc2nc[nH]c12)c1cc2cccc(Cl)c2c(=O)n1-c1ccccc1 . Is its viability, T/C strictly less than 90%?
0

###

Tested on: 945468-187-T-J2-PDC spheroids viability
Assay: Anticancer human tumor 945468-187-T-J2-PDC cell line growth inhibition [PI3K];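 also: spheroids exposed to compounds for seven days before reading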
Details: curve of first compound; second compound 0.01 µM; spheroids with HUVEC and MSC
Below: a set of entries, each annotated with reported IC50.

Consider the reported IC50 for these compounds:
Given C[C@@H](NC(=O)c1ncnc(N)c1Cl)c1ncc(C(=O)Nc2cc(C(F)(F)F)c(Cl)cn2)s1 + COc1c(OCCCN2CCOCC2)ccc2c3n(c(=NC(=O)c4cnc(N)nc4)nc12)CCN3 , respond with its IC50.
> 10 µM

Note IC50 for the compound shown: CCCS(=O)(=O)Nc1ccc(F)c(C(=O)c2c[nH]c3ncc(-c4ccc(Cl)cc4)cc23)c1F + CC(Nc1ccc2c(c1)OCCn1cc(N3C(=O)OCC3C(F)F)nc1-2)C(N)=O
4.28 µM

Supply IC50 value. Item: CC(C)NCC(C(=O)N1CCN(c2ncnc3c2C(C)CC3O)CC1)c1ccc(Cl)cc1 (stereo unspecified) + CC(Nc1ccc2c(c1)OCCn1cc(N3C(=O)OCC3C(F)F)nc1-2)C(N)=O
> 10 µM

Continuing:
Quote IC50 reported for CC(C)n1nc(-c2ccc3oc(N)nc3c2)c2c(N)ncnc21 + COc1c(OCCCN2CCOCC2)ccc2c3n(c(=NC(=O)c4cnc(N)nc4)nc12)CCN3 please.
> 0.1 µM

// Input: CNC(=O)c1ccc(N2C(=S)N(c3ccc(C#N)c(C(F)(F)F)c3)C(=O)C2(C)C)cc1F + COc1c(OCCCN2CCOCC2)ccc2c3n(c(=NC(=O)c4cnc(N)nc4)nc12)CCN3 . Output its IC50 only.
> 10 µM

Please give the documented IC50 of CCCS(=O)(=O)Nc1ccc(F)c(C(=O)c2c[nH]c3ncc(-c4ccc(Cl)cc4)cc23)c1F + COc1c(OCCCN2CCOCC2)ccc2c3n(c(=NC(=O)c4cnc(N)nc4)nc12)CCN3
6.43 µM

Quote IC50 reported for CC1(C)CCC(CN2CCN(c3ccc(C(=O)NS(=O)(=O)c4ccc(NCC5CCOCC5)c([N+](=O)[O-])c4)c(Oc4cnc5[nH]ccc5c4)c3)CC2)=C(c2ccc(Cl)cc2)C1 + CC(Nc1ccc2c(c1)OCCn1cc(N3C(=O)OCC3C(F)F)nc1-2)C(N)=O please.
> 10 µM
